The compounds below have reported log10(GI50) for RAW246.7: murine leukemic monocyte macrophages.
Transform log10 | Measure GI50 | Unit nM

Each compound below has a reported value. Please supply its log10(GI50).
1. CO[C@@H]1C(=O)O[C@H](C)[C@H](C)/C=C(\C)C[C@H](C)C(=O)N[C@@H](C)C(=O)N(C)[C@H](Cc2c[nH]c3ccccc23)C(=O)N[C@H]1c1ccc(O)cc1 [Chondramide A, reference compound]
2. CCC1C/C=C(\C)CC(C)C(=O)NC(C)C(=O)N(C)C(Cc2c(Cl)[nH]c3ccccc23)C(=O)NC(c2ccc(O)c(Cl)c2)CC(=O)O1 (single isomer, unassigned) [CA7-Fr2]

[1.67, 0.26]

###

Kindly supply the reported GI50 values for the records listed here.
- System: fibroblast cell line MRC5
# include the unit after the value

- Molecule: "CC1=CC(C)C(C)OC(=O)C(O)C(c2ccc(O)c(Cl)c2)NC(=O)C(Cc2c(Cl)[nH]c3ccccc23)N(C)C(=O)C(C)NC(=O)C(C)C1 (centres unmarked) [Chondramide E4]"
  GI50: "480 nM"

Each molecule below has a reported value. Please supply its GI50.
1. COC1C(=O)OC(C)C(C)C=C(C)CC(C)C(=O)NC(C)C(=O)N(C)C(Cc2c[nH]c3ccccc23)C(=O)NC1c1ccc(O)c(Cl)c1 (centres unmarked) [Chondramide A3]
2. CO[C@@H]1C(=O)O[C@H](C)[C@@H](C)C=C(C)C[C@H](C)C(=O)N[C@@H](C)C(=O)N(C)[C@H](Cc2c(Cl)[nH]c3ccccc23)C(=O)NC1c1ccc(O)cc1 (some centres unmarked) [Chondramide B, reference compound]
3. COC1C(=O)OC(C)C(C)C=C(C)CC(C)C(=O)NC(C)C(=O)N(C)C(Cc2c(Cl)[nH]c3ccccc23)C(=O)NC1c1ccc(OP(=O)(O)O)cc1 (centres unmarked) [Chondramide A6]
4. COC1C(=O)OC(C)C(C)C=C(C)CC(C)C(=O)NC(C)C(=O)N(C)C(Cc2c(Cl)[nH]c3ccccc23)C(=O)NC1c1ccc(O)c(Cl)c1 (centres unmarked) [Chondramide A4]

38 nM
20.9 nM
25.9 nM
12.7 nM

###

The compounds below have reported GI50 for RAW246.7: murine leukemic monocyte macrophages.
Give bare numbers, in nM.

In the examples that follow, each entry is paired with its recorded GI50.
- Compound: "C/C1=C\\CCOC(=O)CC(c2ccc(O)c(Cl)c2)NC(=O)C(Cc2c(Cl)[nH]c3ccccc23)N(C)C(=O)C(C)NC(=O)CC1 (stereo not shown)"
  GI50 [nM]: 180
- Compound: "CCC1C/C=C(\\C)CCC(=O)NC(C)C(=O)N(C)C(Cc2c(Cl)[nH]c3ccccc23)C(=O)NC(c2ccc(O)c(Cl)c2)CC(=O)O1 (stereo not shown)"
  GI50 [nM]: 0.8

API: the following record is the query input.
Could you tell me which GI50 is on file for CCC1C/C=C(\C)CC(C)C(=O)NC(C)C(=O)N(C)C(Cc2c(Cl)[nH]c3ccccc23)C(=O)NC(c2ccc(O)c(Cl)c2)CC(=O)O1 (single isomer, unassigned) [CA7-Fr1] ?
74.7
